Target: hROMK (human Kir1.1) (Homo sapiens (Human))
Assay: cell-based
Settings: CHO T-Rex hROMK stable cell line; thallium flux; 10-point concentration response curve; read-out: Human ROMK Th Flux IC50

- compound: "Cc1cc(-n2cc(CN3CCC(F)(F)C(c4ccc5c(c4C)COC5=O)C3)cn2)ncc1C#N (stereo not shown)"
  target-entity: "hROMK (human Kir1.1) (Homo sapiens (Human))"
  unit-spec: "µM"
  IC50: 0.27
- compound: "Cc1cc(-n2cc(CN3CC(O)CC(c4ccc5c(c4C)COC5=O)C3)cn2)ncc1C#N (single isomer, unassigned)"
  target-entity: "hROMK (human Kir1.1) (Homo sapiens (Human))"
  unit-spec: "µM"
  IC50: 0.016
- compound: "Cc1cn(-c2ccc(CN3CCN[C@H](c4ccc5c(c4C)COC5=O)C3)c(C)n2)cn1"
  target-entity: "hROMK (human Kir1.1) (Homo sapiens (Human))"
  unit-spec: "µM"
  IC50: 0.076
- compound: "Cc1c([C@@H]2CN(Cc3ccc(-n4cc(C#N)nn4)nc3)CCN2)ccc2c1COC2=O"
  target-entity: "hROMK (human Kir1.1) (Homo sapiens (Human))"
  unit-spec: "µM"
  IC50: 0.019

----------
Recorded pIC50 by entry
Target: hROMK (human Kir1.1) (Homo sapiens (Human), UniProt P48048)
Sequence (P48048 whole entry): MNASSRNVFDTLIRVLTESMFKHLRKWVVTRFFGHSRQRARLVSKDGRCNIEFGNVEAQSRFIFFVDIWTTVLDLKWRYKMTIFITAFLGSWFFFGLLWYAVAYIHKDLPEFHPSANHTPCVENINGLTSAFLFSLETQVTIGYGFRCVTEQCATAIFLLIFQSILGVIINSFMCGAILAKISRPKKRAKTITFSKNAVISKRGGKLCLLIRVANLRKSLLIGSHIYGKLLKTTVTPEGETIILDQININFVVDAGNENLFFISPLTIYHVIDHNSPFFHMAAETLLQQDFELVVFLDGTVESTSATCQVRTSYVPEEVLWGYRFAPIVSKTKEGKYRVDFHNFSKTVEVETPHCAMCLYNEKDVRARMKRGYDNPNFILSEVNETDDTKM
Test: cell-based
Settings: CHO T-Rex hROMK stable cell line; thallium flux; 10-point concentration response curve; read-out: Human ROMK Th Flux IC50
pIC50: −log10 of the molar value.

- compound: "Cc1cc(-c2nnc(CN3C[C@@H](c4ccc5c(c4C)COC5=O)N[C@@H](C)C3)o2)ncc1C#N [Example 191-I]"
  pIC50: 7.54
- compound: "Cc1cn(-c2ncc(CN3CCN[C@H](c4ccc5c(c4C)COC5=O)C3)cn2)c(C)n1 [Example 139-I]"
  pIC50: 7.44
- compound: "COc1cc(-c2ccc(CN3CCN[C@H](c4ccc5c(c4C)COC5=O)C3)c(OC)n2)ncc1C#N [Example 143-I]"
  pIC50: 7.20
- compound: "COc1nc(-n2ncc(CN3C[C@@H](c4ccc5c(c4C)COC5=O)N[C@@H](C)C3)n2)ncc1C#N [Example 166-I]"
  pIC50: 7.52
- compound: "Cc1cc(-n2cc(CN3CC(C)O[C@H](c4ccc5c(c4C)COC5=O)C3)cn2)ncc1C#N (some centres unmarked) [Example 240-I]"
  pIC50: 7.38
- compound: "CC(=O)NC1CC(c2ccc3c(c2C)COC3=O)CN(Cc2cnn(-c3cc(C)c(C#N)cn3)c2)C1 (single isomer, unassigned) [Example 257-I]"
  pIC50: 5.85
- compound: "CCOc1cc(-n2cc(CN3CCN[C@H](c4ccc5c(c4C)COC5=O)C3)cn2)ncc1C#N [Example 137-I]"
  pIC50: 7.59
- compound: "Cc1cc(-c2cc(CN3CC[C@@H](O)[C@H](c4ccc5c(c4C)COC5=O)C3)on2)ncc1C#N [Example 193-I]"
  pIC50: 7.36
- compound: "Cc1cc(-n2cc(CN3CC(c4ccc5c(c4C)COC5=O)NCC3C)cn2)ncc1C#N (single isomer, unassigned) [Example 244-II]"
  pIC50: 7.77
- compound: "COc1cc(-n2cnc(CN3CC[C@@H](O)[C@H](c4ccc5c(c4C)COC5=O)C3)c2)ccc1C#N [Example 162-I]"
  pIC50: 6.59
- compound: "Cc1cc(-n2cc(CN3CCO[C@@H](c4ccc5c(c4C)COC5=O)C3)cn2)ncc1C#N [Example 1-II]"
  pIC50: 6.10
- compound: "Cc1c(C#N)ccnc1-n1cc(CN2C[C@@H](c3ccc4c(c3C)COC4=O)N[C@@H](C)C2)cn1 [Example 202-I]"
  pIC50: 6.85
- compound: "Cc1c([C@@H]2CN(Cc3cnn(-c4ccc(S(C)(=O)=O)cn4)c3)C[C@H](C)N2)ccc2c1COC2=O [Example 161-I]"
  pIC50: 6.77
- compound: "Cc1c([C@@H]2CN(Cc3cnn(-c4ccc5oc(=O)n(C)c5c4C)c3)CCN2)ccc2c1COC2=O [Example 135-I]"
  pIC50: 6.77
- compound: "COc1cc(-c2ccc(CN3CCO[C@H](c4ccc5c(c4C)COC5=O)C3)cn2)ncc1C#N [Example 35-I]"
  pIC50: 6.92
- compound: "Cc1c([C@@H]2CN(Cc3cn(-c4ccc(C#N)cn4)cn3)CCO2)ccc2c1COC2=O [Example 28-I]"
  pIC50: 7.07
- compound: "Cc1c([C@@H]2CN(Cc3ccc(-c4ccc(S(C)(=O)=O)nc4)nc3)C[C@H](C)N2)ccc2c1COC2=O [Example 165-I]"
  pIC50: 7.17
- compound: "Cc1cn(-c2ccc(CN3CCN[C@H](c4ccc5c(c4C)COC5=O)C3)cn2)nn1 [Example 222-I]"
  pIC50: 7.22
- compound: "Cc1cc(-n2cc(CN3C[C@@H](c4ccc5c(c4C)COC5=O)NS3(=O)=O)cn2)ncc1C#N [Example 119-I]"
  pIC50: 6.85
- compound: "Cc1cc(-c2nc(CN3C[C@@H](c4ccc5c(c4C)COC5=O)N[C@@H](C)C3)co2)ncc1C#N [Example 130-I]"
  pIC50: 7.28
- compound: "Cc1cc(-n2cc(CN3C[C@@H](c4ccc5c(c4C)COC5=O)OC3=O)cn2)ncc1C#N [Example 9-I]"
  pIC50: 7.36
- compound: "COc1cc(-n2cc(CN3C[C@@H](c4ccc5c(c4C)COC5=O)N[C@@H](C)C3)n(C(C)C)c2=O)ncc1C#N [Example 172-I]"
  pIC50: 6.80
- compound: "Cc1cc(-n2cc(CN3C[C@H](CO)N(C)[C@H](c4ccc5c(c4C)COC5=O)C3)cn2)ncc1C#N [Example 195-I]"
  pIC50: 7.18
- compound: "Cc1cc(-n2cc(CN3C[C@@H](c4ccc5c(c4C)COC5=O)N[C@@H](C)C3)cn2)ccn1 [Example 102-I]"
  pIC50: 7.32
- compound: "Cc1cc(-n2cc(CN3CCC(=O)C(c4ccc5c(c4C)COC5=O)C3)cn2)ncc1C#N (centres unmarked) [Example 232-I]"
  pIC50: 6.32
- compound: "Cc1c([C@@H]2CN(Cc3ccc(-n4ccc(C#N)n4)nc3)CCN2)ccc2c1COC2=O [Example 136-I]"
  pIC50: 7.55
- compound: "Cc1c([C@@H]2CN(Cc3cnn(-c4ccncc4)c3)CCO2)ccc2c1COC2=O [Example 44-I]"
  pIC50: 6.70
- compound: "Cc1cc(-n2cc(CN3CCC(C)(O)C(c4ccc5c(c4C)COC5=O)C3)cn2)ncc1C#N (single isomer, unassigned) [Example 114-I]"
  pIC50: 7.49
- compound: "Cc1cc(-n2cc(CN3C[C@@H](c4ccc5c(c4C)COC5=O)NC3=O)cn2)ncc1C#N [Example 118-I]"
  pIC50: 6.54
